experiment: Plasma stability (37° C., pH 7.4), rat; assay type: in vitro ADME, Sprague-Dawley rat; conditions: male, Sprague-Dawley, rat, plasma, pH 7.4, Rat plasma, 1 μM; read-out: Half-life
QUANTITY KIND: half-life at 1 μM

INPUT: Recorded half-life at 1 μM for CCCCC/C=C\C/C=C\CCCCCCCC(=O)OCC(COC(=O)CCC(=O)OCCNC(=O)CCCCCCCCCCCCCCC)OC(=O)CCCCCCC/C=C\C/C=C\CCCCC (stereo not shown) , please?
OUTPUT: 42 min

###

assay: in vitro; conditions: male, Beagle, dog, microsomes, 20 min, 1 μM
Listed below: % Remaining of Initial, 20 min values for each entry.

MOLECULE	% Remaining of Initial, 20 min
CCCCC/C=C\C/C=C\CCCCCCCC(=O)OCCNC(=O)CCCCCCCCCCCCCCC	100%
CCCCCCCCCCCCCCCC(=O)NCCOC(=O)CCC(=O)OC[C@H]1O[C@@](CO)(O[C@H]2O[C@H](CO)[C@@H](O)[C@H](O)[C@H]2O)[C@@H](O)[C@@H]1O	1.4%
CCCCCCCCCCCCCCCC(=O)NCCOC(=O)CCC(=O)OCC(O)CO (stereo not shown)	<1.0%
CCCCCCCCCCCCCCCC(=O)NCCOC(=O)CCC	<1.0%
CCCCCCCCCCCCCCCC(=O)NCCOC(=O)CCC(=O)OCC(COC(=O)CCCCCCC)OC(=O)CCCCCCC (stereo not shown) [Compound I-3, PEA-Succinate-Glycerol-Di-Caprylic]	85%
CCCCCCCCCCCCCCCC(=O)NCCOC(=O)CCC(=O)OCC(COC(=O)CCC)OC(=O)CCC (stereo not shown)	<1.0%

Here's the next entry for you.
INPUT: Recorded % Remaining of Initial, 20 min for CC/C=C\C/C=C\C/C=C\C/C=C\C/C=C\CCCC(=O)OCCNC(=O)CCCCCCCCCCCCCCC , please?
OUTPUT: 75%
